- Target or test system: UPR counterscreen luciferase reporter, luminescence
- Assay text: luciferase reporter activation, UPR counterscreen line – cell-based, luminescence, counter-screen for adaptive UPR activator project, dose response (AID 489027)
Activity calls are given as the source filed them. The rule behind the calls is not given here.
Quantity name: EC50

[
  {
    "Smiles str": "COc1ccc2oc(-c3ccc(C)c(NC(=O)c4ccc(N5CCOCC5)c([N+](=O)[O-])c4)c3)nc2c1",
    "EC50": "> 80 µM (inactive)"
  },
  {
    "Smiles str": "c1ccc(N=Nc2ccc3cccccc2-3)cc1",
    "EC50": "11 µM"
  },
  {
    "Smiles str": "CCOC(=O)c1nnc(-c2ccc(C)cc2)nc1Sc1ccccc1Cl",
    "EC50": "14.8 µM"
  },
  {
    "Smiles str": "Cc1ccc(C(=O)C(C(=O)/C=C/c2ccccc2)=C2SCCCS2)cc1",
    "EC50": "11.9 µM"
  },
  {
    "Smiles str": "O=C(NC(=S)Nc1ccc(NC(=O)c2cccs2)cc1)c1cc2ccccc2o1",
    "EC50": "inactive"
  },
  {
    "Smiles str": "Clc1ccc(-c2ccc(/C=N/Nc3nncc(-c4ccccc4)n3)o2)cc1",
    "EC50": "13.6 µM"
  }
]

Could you share which EC50 value was measured for `CCN(CC)S(=O)(=O)c1ccc(N/N=C(\C)c2ccc3c(c2)OCO3)c([N+](=O)[O-])c1` ?
inactive

Find the recorded EC50 belonging to `Cc1cc(SCC(=O)c2ccc(O)c(O)c2)n2nc(C)c(-c3ccccc3)c2n1` and report it.
> 80 µM (inactive)

Given `CCOC(=O)c1c(NC(=O)c2cc(-c3ccc(O)cc3)on2)sc(C(C)=O)c1C` , state its recorded EC50.
> 80 µM (inactive)

Any idea what EC50 was measured for `Cc1ccc(Nc2nc(NCc3ccco3)c3ccccc3n2)cc1` ?
> 80 µM (inactive)

Can you share its EC50? I mean this compound: `Cc1ccc(NS(=O)(=O)c2cc([N+](=O)[O-])ccc2N/N=C/c2sc(N3CCOCC3)nc2-c2ccccc2)c(C)c1`
> 80 µM (inactive)
